pIC50 overview
# systemName: Cytochrome P450 11B1, mitochondrial (Homo sapiens)
# Sequence (P15538 whole entry): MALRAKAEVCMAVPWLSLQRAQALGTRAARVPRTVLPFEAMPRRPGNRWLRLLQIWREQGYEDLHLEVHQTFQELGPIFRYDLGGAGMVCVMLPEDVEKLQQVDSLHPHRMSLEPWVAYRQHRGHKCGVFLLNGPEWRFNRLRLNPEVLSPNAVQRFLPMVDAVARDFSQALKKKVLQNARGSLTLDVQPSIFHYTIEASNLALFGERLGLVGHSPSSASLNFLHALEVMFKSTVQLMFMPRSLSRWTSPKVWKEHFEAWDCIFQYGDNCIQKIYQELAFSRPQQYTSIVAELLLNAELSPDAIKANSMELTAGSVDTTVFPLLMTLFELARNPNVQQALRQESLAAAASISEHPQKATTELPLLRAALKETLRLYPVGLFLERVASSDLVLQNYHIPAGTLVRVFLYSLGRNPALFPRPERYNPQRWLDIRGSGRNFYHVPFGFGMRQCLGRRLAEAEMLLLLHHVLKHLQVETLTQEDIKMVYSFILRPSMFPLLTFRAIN
# assayProcedure: Inhibition of human CYP11B1 expressed in V79 MZh cells using [14C]-deoxycorticosterone substrate incubated for 6 hrs by HPTLC method
pIC50: −log10 of the molar value.

smilesRecord	pIC50
Cc1c(F)cncc1-c1cc(F)c2c(c1)CCc1nnc(C)n1-2	5.34
CC(C)c1nnc2n1-c1cc(F)c(-c3cccnc3)cc1CC2	< 5.00
CCc1nnc2n1-c1c(F)cc(-c3cccnc3)cc1CC2	< 5.00
Fc1cncc(-c2cc(F)c3c(c2)CCc2nncn2-3)c1	< 5.00
Fc1cc2c(cc1-c1cccnc1)CCc1nnc(-c3ccccc3)n1-2	< 5.00
CC(C)c1nnc2n1-c1c(F)cc(-c3cccnc3)cc1CC2	< 5.00

###

# Species on record: Homo sapiens
# assayProcedure: Selectivity index, ratio of IC50 for human CYP11B1 to IC50 human CYP11B2
Output schema: class label derived from Ratio IC50. Mapping: Low: < 80; Mid: ≥ 80 and < 100; High: ≥ 100

compound	assignedCategory
Cc1nnc2n1-c1cc(F)c(-c3cccnc3)cc1CC2	Mid
Fc1cc(-c2cccnc2)cc2c1-n1cnnc1CC2	Mid
Cc1nnc2n1-c1c(F)cc(-c3cncc4ccccc34)cc1CC2	Low
Cc1nnc2n1-c1c(F)cc(-c3cncc(C(F)(F)F)c3)cc1CC2	Low
Cc1nnc2n1-c1c(F)cc(-c3cncc(F)c3)cc1CC2	High
Fc1cc2c(cc1-c1cccnc1)CCc1nncn1-2	Low
Cc1c(F)cncc1-c1cc(F)c2c(c1)CCc1nncn1-2	High
Cc1nnc2n1-c1c(F)cc(-c3cccnc3)cc1CC2	High
COc1cncc(-c2cc(F)c3c(c2)CCc2nnc(C)n2-3)c1	Mid
Cc1ccncc1-c1cc(F)c2c(c1)CCc1nnc(C)n1-2	High
Cc1c(F)cncc1-c1cc(F)c2c(c1)CCc1nnc(C)n1-2	High
Cc1nnc2n1-c1c(F)cc(-c3cncc(C(C)O)c3)cc1CC2 (centres undefined)	High
Cc1nnc2n1-c1c(F)cc(-c3cncc(-c4ccccc4)c3)cc1CC2	Low

###

# assayProcedure: Stability in human hepatic microsomes assessed as unchanged compound level at 1 uM after 120 mins in presence of NADPH system by LC-MS/MS method
# Type: ADME, Microsome
# appliedConditions: liver microsomes, read-out: Stability
measuredEndpoint: remaining at 2 h, 1 µM (%)

smilesRecord	valueReported
Cc1ccncc1-c1cc(F)c2c(c1)CCc1nnc(C)n1-2	80

###

# systemName: Cytochrome P450 1A2 (Homo sapiens)
# Sequence (P05177 whole entry): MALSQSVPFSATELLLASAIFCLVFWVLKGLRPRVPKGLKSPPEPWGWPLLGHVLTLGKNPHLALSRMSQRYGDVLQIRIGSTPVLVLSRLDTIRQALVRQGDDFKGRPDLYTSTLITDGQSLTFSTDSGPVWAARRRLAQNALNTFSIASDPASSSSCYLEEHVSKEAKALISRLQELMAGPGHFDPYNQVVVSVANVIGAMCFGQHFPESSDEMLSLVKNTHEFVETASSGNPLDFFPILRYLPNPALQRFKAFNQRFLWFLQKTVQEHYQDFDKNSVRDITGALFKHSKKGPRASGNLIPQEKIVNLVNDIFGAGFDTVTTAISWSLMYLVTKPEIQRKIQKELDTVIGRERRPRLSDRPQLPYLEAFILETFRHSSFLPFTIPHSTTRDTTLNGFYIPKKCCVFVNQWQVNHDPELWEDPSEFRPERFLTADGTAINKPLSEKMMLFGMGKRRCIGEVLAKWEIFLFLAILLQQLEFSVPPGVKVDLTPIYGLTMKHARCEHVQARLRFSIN
# assayProcedure: Inhibition of human recombinant CYP1A2 using phenacetin substrate by LC-MS/MS method
Measured IC50, listed per entry for reference.

smilesRecord	IC50
Cc1nnc2n1-c1c(F)cc(-c3cncc(F)c3)cc1CC2	> 50 µM
Cc1ccncc1-c1cc(F)c2c(c1)CCc1nnc(C)n1-2	> 50 µM

###

Reported pIC50 by item:
# systemName: UniProtKB P19099
# Sequence (P19099 whole entry): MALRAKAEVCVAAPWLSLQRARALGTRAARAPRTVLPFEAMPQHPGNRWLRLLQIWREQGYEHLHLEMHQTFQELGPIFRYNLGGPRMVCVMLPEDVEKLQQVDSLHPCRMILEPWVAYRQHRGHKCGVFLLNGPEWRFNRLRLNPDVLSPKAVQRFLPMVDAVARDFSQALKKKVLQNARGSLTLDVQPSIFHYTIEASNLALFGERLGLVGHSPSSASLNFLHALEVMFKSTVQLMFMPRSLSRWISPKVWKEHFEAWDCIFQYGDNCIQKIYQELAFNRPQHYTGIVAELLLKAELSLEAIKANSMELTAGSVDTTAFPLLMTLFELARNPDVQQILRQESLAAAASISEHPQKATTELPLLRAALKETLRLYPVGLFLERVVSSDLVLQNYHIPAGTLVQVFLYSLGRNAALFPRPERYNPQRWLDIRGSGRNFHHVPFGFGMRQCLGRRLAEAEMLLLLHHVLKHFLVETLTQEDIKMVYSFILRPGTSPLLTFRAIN
# assayProcedure: Inhibition of human CYP11B2 expressed in V79 MZh cells using [14C]-deoxycorticosterone substrate incubated for 6 hrs by HPTLC method
pIC50: −log10 of the molar value.

smilesRecord	pIC50
Fc1cc2c(cc1-c1cccnc1)CCc1nnc(-c3ccccc3)n1-2	< 5.00
Fc1cc(-c2cccnc2)cc2c1-n1c(nnc1-c1ccncc1)CC2	< 5.00
Fc1cc(-c2cccnc2)cc2c1-n1c(nnc1-c1ccccc1)CC2	< 5.00
